target: BK virus VP1 protein, genotype IV (BK virus); assay: cell-based or functional assay
Give measured EC50, pseudovirus neutralization for each item. Keep answers brief.
Hi! Could you send only the number? It should be in nM, unit omitted.

Q: Given the binder 5A8 (antibody, V domains shown) VH: QVQLVESGGDLVKPGGSLRLSCVASGFTFSDYYMNWIRLPPGRGLEWISYIDSSAGAIYYADSVKGRFTVSRDDAKKSLFLYMNSLRADDTAVYYCARERRDGHKIFDYWGPGTLVTVSS VL: DIVMTQSPDSLAVSLGERATINCKSSQNILYSSNNKNYLAWYQQKAGQPPKLLIFWSSTRESGVPDRFSGSGSGTDFTLTISSLQAEDVAVYYCHQYYSSPYNFGRGTTLEIK , write its reported EC50, pseudovirus neutralization.
Result: 0.0774

Q: Indicate the recorded EC50, pseudovirus neutralization value for this binder: 2F11 (antibody, V domains shown) VH: EVQLVQSGAEVKKPGESLKISCKGSGYSFTNYWIGWVRQMPGKGLEWMGIIYPGDSDTRYSPSFQGQVTLSADKSISTAYLQWNSLKASDTAMYYCATHARSWNYVAYWGQGTLVTVAS VL: DIQMTQSPSSLSASVGDRVTITCRASQSVNNFLNWYQQKPGTAPKLLIYAASSLQGGVPSRFSGSGSGTDFTLTISSLQPEDFATYYCQQSNTTPWTFGQGTKVEIK
Result: 0.0061

Q: Look up EC50, pseudovirus neutralization of 7H8 (antibody, V domains shown) VH: EVQLLESGGGLVQPGGSLRLSCAASGFAFHTYDMTWVRQAPGKGLEWVSGVVGSGINTYYADSVKGRFTISRDNSKSTLYLQMNSLRAEDTAVYYCAKDSSSWFSLHYWGQGTLVTVSS VL: DIQMTQSPSTLSASVGDRVTITCRASQSISNWLAWYQQKPGKAPKLLIYKASSLESGVPSRFSGSGSGTDFTLTISSLQPDDFASYYCQQYRSYAYTFGQGTKLEIT and report it.
Result: 0.0943
